- protocol_text: Blood levels after oral administration to mice (Table 4)
- Assay type: in vivo
- condition_set: mouse, 200 mg/kg, oral 200 mg/kg, assay organism S. aureus A-9606
Entries and their half-life values follow.
Answer with the value and then the unit.

CC(C)(C)C(=O)OCOC(=O)C1N2C(=O)CC2S(=O)(=O)C1(C)CCl (centres unmarked)    60 min

Moving on to the next molecule.
Task: Query: half-life; subject: CC1(CCl)C(C(=O)O)N2C(=O)CC2S1(=O)=O (centres unmarked)
Result: 50 min

###

- protocol_text: Blood levels and half-life of BL-P2024 after oral administration of various doses to mice (Table 5)
- Assay type: in vivo
- condition_set: mouse, oral 50 mg/kg, 15 min, read-out: Blood level
measured_quantity: concentration at […] (ng/mL)
Numeric only. Scale: ng/mL

Task: Need concentration at […], item CC(C)(C)C(=O)OCOC(=O)C1N2C(=O)CC2S(=O)(=O)C1(C)CCl (stereo not shown)
Result: 7700

Values compiled from patent US4340539A.
